Molecular target: T1, Human BCMA (human, UniProt Q02223 1-54, limits assumed)
T1 construct: Soluble analyte in SPR; construct not described; also called huBCMA; B-cell maturation antigen
T1 sequence (looked up): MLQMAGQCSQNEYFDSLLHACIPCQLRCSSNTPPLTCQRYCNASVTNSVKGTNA
Assay: SPR, IgG immobilised, 25 C
Method: All experiments were performed on a Bio-Rad Proteon XPR36 surface Plasmon resonance biosensor (Bio-Rad, Hercules, Calif.). […] The analysis temperature for the immobilization was 25° C. and the running buffer was HBS-T+(10 mM HEPES, 150 mM NaCl, 0.05% Tween-20, pH 7.4). […] The analysis temperature for the BCMA binding analysis was 37° C. or 25° C. in a running buffer of HBS-T+, supplemented with 1 mg/mL BSA. […] Immediately after the 50 nM BCMA injection, dissociation was monitored for 2 hours. […]
Recorded koff for the following binders
Your answer should be a plain number; it is taken to be in s⁻¹.

Would you kindly share the measured koff for L1.LGF/L3.KW/P6E01 (antibody, V domains shown, IgG) VH: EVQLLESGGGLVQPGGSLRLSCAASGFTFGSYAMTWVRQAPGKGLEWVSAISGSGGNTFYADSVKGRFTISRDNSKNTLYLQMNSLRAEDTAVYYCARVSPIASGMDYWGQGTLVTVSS VL: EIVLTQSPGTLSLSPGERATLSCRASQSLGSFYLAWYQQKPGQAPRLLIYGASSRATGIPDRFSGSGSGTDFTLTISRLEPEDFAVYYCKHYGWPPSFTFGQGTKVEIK ?
0.00755

Can you handle L3.KW/P6E01 (antibody, V domains shown, IgG) VH: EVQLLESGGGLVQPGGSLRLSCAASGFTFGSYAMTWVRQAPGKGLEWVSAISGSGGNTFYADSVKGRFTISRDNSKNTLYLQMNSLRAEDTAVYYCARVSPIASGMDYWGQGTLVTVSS VL: EIVLTQSPGTLSLSPGERATLSCRASQSVSSSYLAWYQQKPGQAPRLLIYGASSRATGIPDRFSGSGSGTDFTLTISRLEPEDFAVYYCKHYGWPPSFTFGQGTKVEIK next?
0.000315

Can you handle L1.GDF/L3.NY/P6E01 (antibody, V domains shown, IgG) VH: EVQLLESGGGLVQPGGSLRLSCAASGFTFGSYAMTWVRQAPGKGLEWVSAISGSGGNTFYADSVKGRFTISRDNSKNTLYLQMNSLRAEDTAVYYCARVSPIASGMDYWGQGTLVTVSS VL: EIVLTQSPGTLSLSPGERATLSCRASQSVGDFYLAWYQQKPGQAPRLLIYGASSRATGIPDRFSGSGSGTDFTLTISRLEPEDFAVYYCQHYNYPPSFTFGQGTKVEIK next?
0.00592

Can you handle L1.LGF/L3.KW/H3.AL (antibody, V domains shown, IgG) VH: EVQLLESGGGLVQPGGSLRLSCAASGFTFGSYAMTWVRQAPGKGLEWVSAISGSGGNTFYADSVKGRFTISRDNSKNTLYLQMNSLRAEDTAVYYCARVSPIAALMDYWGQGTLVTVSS VL: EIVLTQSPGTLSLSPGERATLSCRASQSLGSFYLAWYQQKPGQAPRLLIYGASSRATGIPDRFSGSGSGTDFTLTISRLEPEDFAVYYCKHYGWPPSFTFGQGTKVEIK next?
0.00123

Can you handle L1.LGF/L3.PY/H3.AP (antibody, V domains shown, IgG) VH: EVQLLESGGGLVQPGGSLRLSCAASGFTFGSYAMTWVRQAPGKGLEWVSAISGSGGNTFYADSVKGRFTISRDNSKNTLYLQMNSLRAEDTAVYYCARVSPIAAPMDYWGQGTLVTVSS VL: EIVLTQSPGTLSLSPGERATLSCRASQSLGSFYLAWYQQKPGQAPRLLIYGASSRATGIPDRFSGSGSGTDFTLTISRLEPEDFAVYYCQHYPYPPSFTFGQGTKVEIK next?
0.000969

These measurements were taken from patent US20160297884A1.
